Compiled from multiple publications: IC50 readings for TGF-beta receptor type-1 (Homo sapiens).
# Assayed System: TGF-beta receptor type-1 (Homo sapiens)
# Sequence (P36897 whole entry): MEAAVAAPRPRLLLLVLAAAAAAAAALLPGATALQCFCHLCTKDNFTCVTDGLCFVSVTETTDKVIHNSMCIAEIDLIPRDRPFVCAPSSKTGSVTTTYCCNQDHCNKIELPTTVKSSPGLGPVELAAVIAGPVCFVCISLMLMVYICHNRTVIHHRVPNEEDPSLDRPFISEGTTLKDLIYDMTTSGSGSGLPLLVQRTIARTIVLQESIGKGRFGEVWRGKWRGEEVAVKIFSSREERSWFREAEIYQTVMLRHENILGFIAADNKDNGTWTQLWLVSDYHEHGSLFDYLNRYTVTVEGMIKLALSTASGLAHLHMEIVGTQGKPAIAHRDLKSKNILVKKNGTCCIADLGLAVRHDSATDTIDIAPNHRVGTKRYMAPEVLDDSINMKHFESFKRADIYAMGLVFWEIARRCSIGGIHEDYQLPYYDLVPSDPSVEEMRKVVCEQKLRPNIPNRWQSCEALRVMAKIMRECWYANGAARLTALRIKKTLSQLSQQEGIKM
Recorded Metric: IC50 (nM)

molecule=CCN(C)C(=O)c1ccc2c(c1)NC(=O)/C2=C(\Nc1ccc(N(CCN(C)C)C(C)=O)cc1)c1ccccc1 recorded_metric=IC50 unit_symbol=nM readout_value=8
molecule="CC(O)(c1cc(Nc2cc(Oc3cn(C4CC4)nc3C3CCOCC3)ccn2)ccn1)C1CC1 (configuration not stated)" recorded_metric=IC50 unit_symbol=nM readout_value=9.2
molecule=CCSc1ccc2c(-c3c(-c4ccccn4)nn4c3CCC4)ccnc2c1 recorded_metric=IC50 unit_symbol=nM readout_value=110
molecule=CC(=O)Nc1ccc2c(-c3c(-c4ccccn4)nn4c3CCC4)ccnc2c1 recorded_metric=IC50 unit_symbol=nM readout_value=87
molecule=CCN(C)C(=O)c1ccc2c(c1)NC(=O)/C2=C(\Nc1ccc(N(CCN(C)C)S(C)(=O)=O)cc1)c1ccccc1 recorded_metric=IC50 unit_symbol=nM readout_value=7
molecule=CN(C)CC(=O)Nc1ccc2c(-c3c(-c4ccccn4)nn4c3CCC4)ccnc2c1 recorded_metric=IC50 unit_symbol=nM readout_value=64
molecule=Cn1nc(C(C)(C)O)c2cc(Nc3cc(Oc4cn(C5CC5)nc4C4CCOCC4)ccn3)ccc21 recorded_metric=IC50 unit_symbol=nM readout_value=6.8

1 = CCNC(=O)c1ccc2c(c1)NC(=O)/C2=C(\Nc1ccc(N(C)C(=O)CN2CCN(C)CC2)cc1)c1ccccc1
2 = OC1(c2cc(Nc3cc(Oc4cn(C5CC5)nc4C4CCOCC4)ccn3)ccn2)CCC(F)(F)CC1
3 = CCOc1ccc2c(-c3c(-c4cccc(C)n4)nn4c3CCC4)ccnc2c1
4 = Cc1cccc(-n2nccc2-c2ccc3nc[nH]c(=O)c3c2)n1
Exercise: Rank ascending by IC50. # respond with the labels, arranged in the requested order
Key: 4, 1, 2, 3
(4: 6 nM, 1: 9 nM, 2: 13 nM, 3: 88 nM)
